Catalogue of EC50 values
test system: HRE-bla ME-180 cells; experiment: Reporter gene assay (HRE-bla ME-180 HIF reporter, GeneBLAzer); assay type: cell-based, human; details: 24 hour normoxia
Bridge positions count the residues as written; N and C are the ends. Square brackets hold non-standard residues; d marks the D form. Peptide text beside a SMILES is read from it. S5 = C=CCCC[C@](C)(N)C(=O)O; Nle = CCCC[C@H](N)C(=O)O

Worked examples follow.
• CCCC[C@H](NC(=O)[C@H](CCCNC(=N)N)NC(=O)[C@@H](NC(=O)[C@@H](NC(=O)[C@H](CC(C)C)NC(=O)[C@]1(C)CCCC=CCCC[C@](C)(NC(=O)[C@H](CCC(=O)O)NC(=O)[C@H](CC(=O)O)NC(=O)[C@@H](NC(=O)[C@H](Cc2ccccc2)NC(C)=O)[C@@H](C)CC)C(=O)N[C@@H](C(C)C)C(=O)N[C@@H](CC(C)C)C(=O)N[C@@H](CCCC)C(=O)N1)C(C)C)[C@@H](C)CC)C(=O)N[C@@H](C)C(=O)N[C@@H](CC(C)C)C(N)=O [SP-157] (Ac-FIDE[S5]VL[Nle][S5]LVIR[Nle]AL-NH2; staple 5-9) = > 30 µM
• CCCC[C@H](NC(=O)[C@H](C)NC(=O)[C@@H](NC(=O)[C@@H](NC(=O)[C@H](CC(C)C)NC(=O)[C@]1(C)CCCC=CCCC[C@](C)(NC(=O)[C@H](CCC(=O)O)NC(=O)[C@H](CC(=O)O)NC(=O)[C@@H](NC(=O)[C@H](Cc2ccccc2)NC(C)=O)[C@@H](C)CC)C(=O)N[C@@H](C(C)C)C(=O)N[C@@H](CC(C)C)C(=O)N[C@@H](CCCC)C(=O)N1)C(C)C)[C@@H](C)CC)C(=O)N[C@@H](C)C(=O)N[C@@H](CC(C)C)C(N)=O [SP-122] (Ac-FIDE[S5]VL[Nle][S5]LVIA[Nle]AL-NH2; staple 5-9) = > 30 µM
• CCCC[C@H](NC(=O)[C@H](CCC(=O)O)NC(=O)[C@@H](NC(=O)[C@@H](NC(=O)[C@H](CO)NC(=O)[C@]1(C)CCCC=CCCC[C@](C)(NC(=O)[C@H](CCC(=O)O)NC(=O)[C@H](CC(=O)O)NC(=O)[C@@H](NC(=O)[C@H](Cc2ccccc2)NC(C)=O)[C@@H](C)CC)C(=O)N[C@@H](C(C)C)C(=O)N[C@@H](CC(C)C)C(=O)N[C@@H](CCCC)C(=O)N1)C(C)C)[C@@H](C)CC)C(=O)N[C@@H](C)C(=O)N[C@@H](CC(C)C)C(N)=O [SP-144] (Ac-FIDE[S5]VL[Nle][S5]SVIE[Nle]AL-NH2; staple 5-9) = > 30 µM

query: Any idea what EC50 was measured for CC[C@H](C)[C@H](NC(=O)[C@H](Cc1ccccc1)NC(C)=O)C(=O)N[C@@H](CC(N)=O)C(=O)N[C@@H](CCC(=O)O)C(=O)N[C@@H](CCC(=O)O)C(=O)N[C@H](C(=O)N[C@@H](CC(C)C)C(=O)N[C@@H](CCSC)C(=O)N[C@@]1(C)CCCC=CCCC[C@@](C)(C(=O)N[C@@H](CCSC)C(=O)N[C@@H](C)C(=O)N[C@@H](CC(C)C)C(N)=O)NC(=O)[C@H]([C@@H](C)CC)NC(=O)[C@H](C(C)C)NC(=O)[C@H](CC(C)C)NC1=O)C(C)C [SP-232] (Ac-FINEEVLM[S5]LVI[S5]MAL-NH2; staple 9-13) ?
result: > 30 µM

query: What about CCCC[C@H](NC(=O)[C@H](Cc1ccccc1)NC(=O)[C@@H](NC(=O)[C@H](CCC(=O)O)NC(=O)[C@H](CCC(=O)O)NC(=O)[C@H](CC(=O)O)NC(C)=O)C(C)C)C(=O)N[C@@]1(C)CCCC=CCCC[C@@](C)(C(=O)N[C@@H](CCCC)C(=O)N[C@@H](C)C(=O)N[C@@H](CC(C)C)C(=O)N[C@@H](CC(C)C)C(N)=O)NC(=O)[C@H]([C@@H](C)CC)NC(=O)[C@H](C(C)C)NC(=O)[C@H](CC(C)C)NC1=O [SP-244] (Ac-DEEVF[Nle][S5]LVI[S5][Nle]ALL-NH2; staple 7-11) ?
result: ≤ 5 µM

query: What about CCCC[C@@H]1NC(=O)[C@H](CC(C)C)NC(=O)[C@H](C(C)C)NC(=O)[C@@](C)(NC(=O)[C@H](CCC(=O)O)NC(=O)[C@H](CC(=O)O)NC(=O)[C@@H](NC(=O)[C@H](Cc2ccccc2)NC(C)=O)[C@@H](C)CC)CCCC=CCCCC2(CCCC=CCCC[C@](C)(C(=O)N[C@@H](CCCC)C(=O)N[C@@H](C)C(=O)N[C@@H](CC(C)C)C(N)=O)NC(=O)[C@H]([C@@H](C)CC)NC(=O)[C@H](C(C)C)NC(=O)[C@H](CCCNC(=N)N)NC2=O)NC1=O (some centres unmarked) [SP-209] ?
result: > 30 µM

query: What about CC[C@H](C)[C@H](NC(=O)[C@H](Cc1ccccc1)NC(C)=O)C(=O)N[C@@H](CC(=O)O)C(=O)N[C@@H](CCC(=O)O)C(=O)N[C@@H](CC(N)=O)C(=O)N[C@H](C(=O)N[C@@H](CC(C)C)C(=O)N[C@@H](CCSC)C(=O)N[C@@]1(C)CCCC=CCCC[C@@](C)(C(=O)N[C@@H](CCSC)C(=O)N[C@@H](C)C(=O)N[C@@H](CC(C)C)C(N)=O)NC(=O)[C@H]([C@@H](C)CC)NC(=O)[C@H](C(C)C)NC(=O)[C@H](CC(C)C)NC1=O)C(C)C [SP-235] (Ac-FIDENVLM[S5]LVI[S5]MAL-NH2; staple 9-13) ?
result: 15 to 30 µM

query: What about CC[C@H](C)[C@H](NC(=O)[C@H](Cc1ccccc1)NC(C)=O)C(=O)N[C@@H](CC(=O)O)C(=O)N[C@@H](CCC(=O)O)C(=O)N[C@@H](CCC(=O)O)C(=O)N[C@H](C(=O)N[C@@H](CC(C)C)C(=O)N[C@@H](CCSC)C(=O)N[C@@]1(C)CCCC=CCCC[C@@](C)(C(=O)N[C@@H](CCSC)C(=O)N[C@@H](C)C(=O)N[C@@H](Cc2ccccc2)C(N)=O)NC(=O)[C@H]([C@@H](C)CC)NC(=O)[C@H](C(C)C)NC(=O)[C@H](CC(C)C)NC1=O)C(C)C [SP-226] (Ac-FIDEEVLM[S5]LVI[S5]MAF-NH2; staple 9-13) ?
result: > 30 µM

* * *

biological target: flag-tagged HIF1α (AA 786-826) / His6-tagged p300 (AA 323-423) complex (Homo sapiens); construct: His6-tagged p300 (AA 323-423); made in house; host or cells: E. coli (pETDuet vector); assay: HIF1α p300 displacement assay (TR FRET, +CHAPS); format: binding; conditions: read-out: IC50 (nM) (HIF1α_p300 Displacement + CHAPS)
Sequence (Q09472 323-423, one chain of several): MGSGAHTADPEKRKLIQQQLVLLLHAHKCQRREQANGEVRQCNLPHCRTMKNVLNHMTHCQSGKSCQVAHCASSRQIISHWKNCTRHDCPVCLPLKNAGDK
Bridge positions count the residues as written; N and C are the ends. Square brackets hold non-standard residues; d marks the D form. Peptide text beside a SMILES is read from it. S5 = C=CCCC[C@](C)(N)C(=O)O; Nle = CCCC[C@H](N)C(=O)O
MEASURED QUANTITY: IC50

* CCCC[C@H](NC(=O)[C@H](CC(C)C)NC(=O)[C@@H](NC(=O)[C@H](CCC(=O)O)NC(=O)[C@H](CCC(=O)O)NC(=O)[C@H](CC(=O)O)NC(=O)[C@@H](NC(=O)[C@H](Cc1ccccc1)NC(C)=O)[C@@H](C)CC)C(C)C)C(=O)N[C@@]1(C)CCCC=CCCC[C@@](C)(C(=O)N[C@@H](CCSC)C(=O)N[C@@H](C)C(=O)N[C@@H](CC(C)C)C(N)=O)NC(=O)[C@H]([C@@H](C)CC)NC(=O)[C@H](C(C)C)NC(=O)[C@H](CC(C)C)NC1=O [SP-224] (Ac-FIDEEVL[Nle][S5]LVI[S5]MAL-NH2; staple 9-13) | 400 to 700 nM

Alright, here's another compound for you.
query: Any idea what IC50 was measured for CCCC[C@@H]1NC(=O)[C@H](CC(C)C)NC(=O)[C@H](C(C)C)NC(=O)[C@@](C)(NC(=O)[C@H](CCC(=O)O)NC(=O)[C@H](CC(=O)O)NC(=O)[C@@H](NC(=O)[C@H](Cc2ccccc2)NC(C)=O)[C@@H](C)CC)CCCC=CCCCC2(CCCC=CCCC[C@](C)(C(=O)N[C@@H](C)C(=O)N[C@@H](C)C(=O)N[C@@H](CC(C)C)C(N)=O)NC(=O)[C@H]([C@@H](C)CC)NC(=O)[C@H](C(C)C)NC(=O)[C@H](CC(C)C)NC2=O)NC1=O (some centres unmarked) ?
result: 200 to 400 nM
